subject-of-test: ΔF508-CFTR (Homo sapiens, UniProt P13569, DEL508-508)
Sequence (P13569 with tags, fused parts or gaps DEL508-508): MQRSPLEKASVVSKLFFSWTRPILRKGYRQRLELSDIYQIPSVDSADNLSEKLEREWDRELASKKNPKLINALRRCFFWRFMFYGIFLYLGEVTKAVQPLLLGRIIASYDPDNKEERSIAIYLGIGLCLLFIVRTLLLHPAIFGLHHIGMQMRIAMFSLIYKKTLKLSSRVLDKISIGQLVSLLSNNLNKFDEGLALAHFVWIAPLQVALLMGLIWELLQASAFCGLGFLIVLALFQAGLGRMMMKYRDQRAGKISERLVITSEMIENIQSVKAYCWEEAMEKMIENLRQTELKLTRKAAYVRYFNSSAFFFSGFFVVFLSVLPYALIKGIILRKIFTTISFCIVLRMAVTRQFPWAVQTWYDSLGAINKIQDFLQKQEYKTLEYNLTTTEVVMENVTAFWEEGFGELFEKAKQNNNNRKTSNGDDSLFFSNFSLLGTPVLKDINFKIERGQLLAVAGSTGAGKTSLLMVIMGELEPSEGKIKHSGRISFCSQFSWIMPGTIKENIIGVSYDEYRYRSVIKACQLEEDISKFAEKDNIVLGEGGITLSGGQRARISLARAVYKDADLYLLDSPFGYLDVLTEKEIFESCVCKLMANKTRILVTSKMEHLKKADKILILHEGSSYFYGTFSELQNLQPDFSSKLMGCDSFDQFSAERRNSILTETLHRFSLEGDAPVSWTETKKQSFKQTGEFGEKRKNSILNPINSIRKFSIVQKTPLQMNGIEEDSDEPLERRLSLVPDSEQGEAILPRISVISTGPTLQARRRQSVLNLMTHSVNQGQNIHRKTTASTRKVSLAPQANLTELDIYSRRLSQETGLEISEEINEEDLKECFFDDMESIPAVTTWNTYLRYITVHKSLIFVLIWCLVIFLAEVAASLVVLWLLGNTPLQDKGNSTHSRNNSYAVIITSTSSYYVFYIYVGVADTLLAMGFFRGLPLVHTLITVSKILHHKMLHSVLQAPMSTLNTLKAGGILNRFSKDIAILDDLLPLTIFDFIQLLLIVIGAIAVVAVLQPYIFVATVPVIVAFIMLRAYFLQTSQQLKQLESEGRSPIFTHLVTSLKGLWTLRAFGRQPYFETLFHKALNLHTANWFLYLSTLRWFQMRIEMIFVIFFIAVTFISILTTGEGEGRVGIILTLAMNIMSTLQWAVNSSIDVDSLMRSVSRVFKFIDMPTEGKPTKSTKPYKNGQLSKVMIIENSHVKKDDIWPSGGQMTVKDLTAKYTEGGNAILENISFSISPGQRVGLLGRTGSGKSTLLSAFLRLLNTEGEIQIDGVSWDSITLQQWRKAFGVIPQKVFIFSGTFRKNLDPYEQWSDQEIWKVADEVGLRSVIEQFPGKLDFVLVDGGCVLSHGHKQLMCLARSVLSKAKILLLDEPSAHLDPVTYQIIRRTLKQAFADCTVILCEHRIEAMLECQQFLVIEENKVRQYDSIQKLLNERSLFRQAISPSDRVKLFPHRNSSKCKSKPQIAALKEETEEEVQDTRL
procedure-details: Membrane potential optical assay (FRET/VIPR), identification of correction compounds
As shown below, each of these compounds has a reported EC50 value.

CC(c1nc2ccccc2c(=O)n1C)N1CCN(S(=O)(=O)c2cc(S(=O)(=O)c3ccccc3)cs2)CC1 (centres unmarked); 25 to 60 µM
CC(c1nc2ccccc2c(=O)n1C)N1CCN(S(=O)(=O)c2ccc(SC(F)(F)F)cc2)CC1 (centres unmarked); < 10 µM
COc1ccc(S(=O)(=O)N2CCN(C(C)c3nc(N4CCN(C(C)=O)CC4)c4ccccc4n3)CC2)cc1 (centres unmarked); 25 to 60 µM

# EC50 lookup, item COc1ccc(S(=O)(=O)N2CCN(C(C)c3nc(N4CCN(c5ccccc5)CC4)c4ccccc4n3)CC2)cc1 (centres unmarked) < 10 µM

Item COc1ccc(S(=O)(=O)N2CCN(C(C)c3nc(N4CCC[C@@H]4C(=O)O)c4ccccc4n3)CC2)cc1 (some centres unmarked) has what recorded EC50? 25 to 60 µM

Quick one: EC50 of CCC(c1nc2ccccc2c(=O)n1CC)N1CCN(S(=O)(=O)c2ccc(OC)cc2)CC1 (centres unmarked) ? < 10 µM

----------
The compounds listed here are annotated with their EC50.
subject-of-test: ΔF508-CFTR (Homo sapiens, UniProt P13569, DEL508-508)
procedure-details: Membrane potential optical assay (FRET/VIPR), identification of correction compounds

COc1ccc(NC(=O)N2CCN(C(C)c3nc4ccccc4c(=O)n3C)CC2)c(OC)c1 (centres unmarked); 25 to 60 µM
CC(NCCN(C)S(=O)(=O)c1ccc(Br)cc1)c1nc2ccccc2c(=O)n1C (centres unmarked); 25 to 60 µM
CC(c1nc2cc(Cl)ccc2c(=O)n1C)N1CCN(C(=O)Cc2ccccc2)CC1 (centres unmarked); 10 to 25 µM
Cn1c(CN2CCN(S(=O)(=O)c3ccc(Cl)cc3)CC2)nc2ccc(Cl)cc2c1=O; 10 to 25 µM
CC(c1nc2ccc(Cl)cc2c(=O)n1C)N1CCN(S(=O)(=O)Cc2ccccc2)CC1 (centres unmarked); 10 to 25 µM
COc1ccc(S(=O)(=O)N2CCN(C(C)c3nc(N4CCC(O)CC4)c4ccccc4n3)CC2)cc1 (centres unmarked); 25 to 60 µM

Item under review: COc1ccc(S(=O)(=O)N2CCN(C(C)c3nc(OC4CCOCC4)c4ccccc4n3)CC2)cc1 (centres unmarked) . Reported EC50? 25 to 60 µM

Entry CCCn1c(C(C)N2CCN(C(=O)Nc3cccc(C#N)c3)CC2)nc2ccccc2c1=O (centres unmarked) has what EC50? 25 to 60 µM

Which EC50 value belongs to CC(c1nc2ccccc2c(=O)n1C)N1CCN(S(=O)(=O)c2cccc3ccccc23)CC1 (centres unmarked) ? 10 to 25 µM

----------
subject-of-test: ΔF508-CFTR (Homo sapiens, UniProt P13569, DEL508-508)
procedure-details: Membrane potential optical assay (FRET/VIPR), identification of correction compounds
endpoint: EC50

CC(c1nc2ccccc2c(=O)n1C)N(CCCNS(=O)(=O)c1ccc(Cl)cc1)S(=O)(=O)c1ccc(Cl)cc1 (stereo not drawn); 25 to 60 µM
COc1ccc(S(=O)(=O)N2CCN(C(C)c3nc(OC4CCC(C)C(C)C4)c4ccccc4n3)CC2)cc1 (stereo not drawn); < 10 µM
CCCC(c1nc2ccccc2c(=O)n1C)N1CCN(S(=O)(=O)c2ccc(OC)cc2)CC1 (stereo not drawn); < 10 µM
CC(c1nc2ccccc2c(=O)n1C)N1CCN(S(=O)(=O)c2ccc(C(=O)O)cc2)CC1 (stereo not drawn); 25 to 60 µM
CC(c1nc2ccccc2c(=O)n1C)N1CCN(S(=O)(=O)c2ccc(C#N)cc2)CC1 (stereo not drawn); 25 to 60 µM

Using the record for `CCc1nc2cccc(Cl)c2c(=O)n1C` , report its EC50. 25 to 60 µM

// EC50 lookup, key: COc1ccc(S(=O)(=O)N(C[C@@H]2CCCCN2S(=O)(=O)c2ccc(OC)cc2)C(C)c2nc3ccccc3c(=O)n2C)cc1 (stereo partly drawn) 25 to 60 µM

Find the recorded EC50 belonging to Cc1ccccc1S(=O)(=O)N1CCN(C(C)c2nc3ccccc3c(=O)n2C)CC1 (stereo not drawn) and report it. 25 to 60 µM

Look at this molecule and give its reported EC50. COc1ccc(S(=O)(=O)N2CCN(C(C)c3nc(N(C)CC4OCCO4)c4ccccc4n3)CC2)cc1 (stereo not drawn) 10 to 25 µM

----------
Reported values of pEC50 for individual entries
subject-of-test: ΔF508-CFTR (Homo sapiens, UniProt P13569, DEL508-508)
procedure-details: Membrane potential optical assay (FRET/VIPR), identification of correction compounds
pEC50: −log10 of the molar value.

Below are worked cases with known answers.
CCCn1c([C@@H](C)N2CCN(S(=O)(=O)c3ccc(Br)cc3)CC2)nc2ccccc2c1=O; > 5.00
CC(c1nc2ccc(Br)cc2c(=O)n1C)N1CCN(S(=O)(=O)c2ccc(Cl)cc2)CC1 (stereo not shown); 4.60 to 5.00
CC(c1nc2ccc(Cl)cc2c(=O)n1C)N1CCN(C(=O)c2ccc(Br)cc2)CC1 (stereo not shown); 4.60 to 5.00
CSc1nccc(-c2ccc(S(=O)(=O)N3CCN(C(C)c4nc5ccccc5c(=O)n4C)CC3)s2)n1 (stereo not shown); 4.22 to 4.60

Look at this compound and give its reported pEC50. CC(=O)NCCn1c(C(C)N2CCN(S(=O)(=O)c3ccc(Cl)cc3)CC2)nc2ccccc2c1=O (stereo not shown) 4.22 to 4.60

Given the compound CC(c1nc2ccccc2c(=O)n1C)N1CCN(C(=O)c2ccc(Br)cc2)CC1 (stereo not shown) , what is its reported pEC50? 4.60 to 5.00

----------
# maps each entry to its Emax
subject-of-test: ΔF508-CFTR (Homo sapiens, UniProt P13569, DEL508-508)
Construct: expressed in transfected cells
procedure-details: Membrane potential optical assay (FRET/VIPR), identification of correction compounds
Type: cell-based
assay-setup: relative efficacy

Worked cases, answers included:
CC(c1nc2cc(Cl)ccc2c(=O)n1C)N1CCN(C(=O)c2ccc(F)cc2)CC1 (centres unmarked); < 25%
COc1ccc(S(=O)(=O)N2CCN(C(C)c3nccc(N4CCCCC4)n3)CC2)cc1 (centres unmarked); 25 to 100%
COc1ccc(S(=O)(=O)N2CCN(C(C)c3nc(N4CCN(c5ccccc5)CC4)c4ccccc4n3)CC2)cc1 (centres unmarked); > 100%
CCN(CC)c1nc(C(C)N2CCN(S(=O)(=O)c3ccc(Br)cc3)CC2)nc2ccccc12 (centres unmarked); 25 to 100%
COc1ccc(S(=O)(=O)N2CCN(C(C)c3nc4ccc(Br)cc4c(=O)n3C)CC2)cc1 (centres unmarked); 25 to 100%

Can you share its Emax? I mean this compound: CC(c1nc(N(C)C)c2ccccc2n1)N1CCN(S(=O)(=O)c2ccc(Cl)cc2)CC1 (centres unmarked) 25 to 100%

Would you mind telling me what Emax value was observed for CC(NC[C@@H]1CCCCN1S(=O)(=O)c1ccc(Br)cc1)c1nc2ccccc2c(=O)n1C (some centres unmarked) ? < 25%

Which value of Emax has been reported for CC(c1nc2ccc(Cl)cc2c(=O)n1C)N1CCN(C(=O)Nc2ccc(Cl)cc2)CC1 (centres unmarked) in the records? 25 to 100%

May I ask what Emax has been recorded for `COc1ccc(S(=O)(=O)N2CCN(Cc3nc(OC4CCCCC4)c4ccccc4n3)CC2)cc1` ? > 100%

Data request, read-out Emax, for CCCn1c(C(C)OCC)nc2ccccc2c1=O (centres unmarked) < 25%

----------
The entries below come with measured Emax values attached.
subject-of-test: ΔF508-CFTR (Homo sapiens, UniProt P13569, DEL508-508)
Construct: expressed in transfected cells
procedure-details: Membrane potential optical assay (FRET/VIPR), identification of correction compounds
Assay type: cell-based
assay-setup: relative efficacy
Source text: I) Membrane Potential Optical Methods for Assaying ΔF508-CFTR Modulation Properties of Compounds […] These voltage sensitive assays are based on the change in fluorescence resonant energy transfer (FRET) between the membrane-soluble, voltage-sensitive dye, DiSBAC2(3), and a fluorescent phospholipid, CC2-DMPE, which is attached to the outer leaflet of the plasma membrane and acts as a FRET donor. […]

CC(c1nc2ccc(Cl)cc2c(=O)n1C)N1CCN(C(=O)c2ccccc2)CC1 (centres unmarked) [compound 38]; < 25%

Would you mind telling me what Emax value was observed for CC(c1nc2ccc(Cl)cc2c(=O)n1C)N1CCN(C(=O)c2ccccc2Cl)CC1 (centres unmarked) [compound 39] ? 25 to 100%

# input molecule: CC(NC1CCN(S(=O)(=O)c2ccc(Br)cc2)CC1)c1nc2ccccc2c(=O)n1C (centres unmarked) [compound 210] ; wanted: its Emax > 100%

I would be grateful if you could share the reported Emax for CNC(=O)c1cnc(C(C)N2CCN(S(=O)(=O)c3ccc(OC)cc3)CC2)nc1N1CCCCC1 (centres unmarked) [compound 357] . 25 to 100%

Could you share which Emax value was measured for CC(NC1CCNCC1)c1nc2ccccc2c(=O)n1C (centres unmarked) [compound 179] ? < 25%
